This collection of values is drawn from the supplement of paper PMC12042874.

Parameter amyloid nucleation score: see the listing below.
- Protocol text: amyloid nucleation score (Sup35N fusion, yeast selection) (log enrichment); library NNK1; higher = more nucleation; inactive = no reads after selection;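 also: zero at mode of non-aggregating sequences after 7 days selection at 30°C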

| Construct sequence | amyloid nucleation score |
| --- | --- |
| PDSCIENLDMWYTFNGDNDT | -0.828 |
| AYFMGHCLKGPRVTLVGCKT | 0.525 |
| RGYVCTVVLSNILLGITTEG | 3.79 |

----------
- Protocol text: amyloid nucleation score (Sup35N fusion, yeast selection) (log enrichment); library NNK2; higher = more nucleation; inactive = no reads after selection

| Construct sequence | amyloid nucleation score |
| --- | --- |
| KINIKGFSSYAGRYHTRKIW | inactive |
| VFFNYSNCLGLA | inactive |
| VQRYRVFVAICFCGEMQRGF | inactive |

----------
- Protocol text: amyloid nucleation score (Sup35N fusion, yeast selection) (log enrichment); library NNK3; higher = more nucleation; inactive = no reads after selection
Recorded endpoint: amyloid nucleation score

| Substance | Endpoint result |
| --- | --- |
| MYTTDYVYRVLVSHFRVPRM | inactive |
| LMGVDSLLYRKHSGV | inactive |
| KKSHCRTIYKSLV | inactive |
| SSESDVNLDVMSKYKFGNIH | inactive |
| LQKIKCSQADYWREMTVRDR | 1.01 |
| LIRVGKDRVVSMEEVRCLLR | inactive |
| PVVRQRNALILCLSHMSCLE | 2.15 |
| VLVEVEIYLILFIVYAW | inactive |
| GMFDCMIELYISGPDLGQGS | inactive |
| IDIVCAF | inactive |
| GLGPSCSQYKP | inactive |
| QTVKVISPYPTMLTLCD | inactive |
| RNKRLKLILYLHRVDEAVAE | inactive |
| WEKYMRMSGRPMGRFKMTGR | inactive |
| TCFVLQNKYVSRCGCWMCYS | 2.12 |
| RLYRRSCVSSR | inactive |
| SICIRFF | inactive |
| ACRGLVDVNNWLSGYGIRIG | inactive |
| FDYWCKVMSHEYYVEEPNIY | inactive |
| IVANGCRWQVRVPWGLTSKW | inactive |

----------
- Protocol text: amyloid nucleation score (Sup35N fusion, yeast selection) (log enrichment); library NNK2; higher = more nucleation; inactive = no reads after selection
Use 0.7 as the dividing line for amyloid nucleation score, with the line itself on the yes (1) side and lower values as no (0).

| Substance | Class label |
| --- | --- |
| RAVDDYRE | yes (1) |
| CMCENTYNRRIKVRYEWLKW | no (0) |
| GSRVALLNMGGK | no (0) |
| FEYIVVESVCRSWWNLVS | no (0) |
| FIIIVLNNSVFRMKCALASI | no (0) |
| CQSCYYHNR | no (0) |
| DAFGRIGPNEKLYDGEDECW | yes (1) |
| SMNSLSIVYLDYASGAWMDL | no (0) |
| LFSYWSVYSGLREVGPYCMV | yes (1) |
| SRHRLAMRTAGTRVVSCWG | no (0) |
| VNHLYYCFCTLITHEVRVVS | yes (1) |
| YVSGGVKAFSFLSVCYLSPW | yes (1) |
| LVLENHWYLLVCRNPVQ | no (0) |
| CDVRMRVAGRAR | yes (1) |
| YSSAGGHRLMGMGRIRYKTG | no (0) |
| EKRMNLVHYREYLPPFKRSN | no (0) |
| HSFPRCNSVHWPDDIGGCDG | yes (1) |
| QMCIVDTNGRN | yes (1) |
| YSMPRSN | no (0) |
| SHLPVWTSKNARSRCDP | no (0) |
| VEFTRVGVRLSHDVPVHDRW | yes (1) |
| VWLGVTSSPIIMSKNMSNVV | no (0) |
| FMLNYERL | no (0) |
| SYDGERVI | no (0) |
| NLHFSLNCMIFQPTASRLKH | yes (1) |
| SVLQAYFRTWSQWIRYTCAG | no (0) |
| HTQSLVRVCWIYIRLPRSTP | no (0) |
| VRLGRWLFTFSANTDTLANM | no (0) |
| VMCFEYYVYYDYDYTCTFNY | yes (1) |
| CRFKVQQMTMENLAQMLVKG | yes (1) |
| EPLVKYPEYSFPSMVCMPSI | no (0) |
| EGCHVGNLDCLPSETATVSV | no (0) |
| TYLRSPLLLNAVSVNT | no (0) |
| SSFFPRQ | no (0) |
| CDHVVVIIIVGWGAEGE | no (0) |
| RGEHRERCGDIGRYGMGRRA | yes (1) |
| FCYIDGLGYSRFNMHAEPSG | no (0) |
| AHHLSFGVNDCSTCERSVQ | yes (1) |
| HHIGGMIS | no (0) |
| WQNETRMACRWFRRMLSFCI | yes (1) |
| GSRDDSTVLVRKSSCRVEGS | no (0) |
| NARFFNSFNSFM | yes (1) |
| MPQSSRFCTNSFGNRHRRSW | no (0) |
| KRIIFALL | no (0) |
| VINVKEYVGYIVSKVDKGGP | yes (1) |
| DWFVSGTSDRVVGNSAGGGV | no (0) |
| LNYMLSAPYFPYESEWSSKG | no (0) |
| SQSKNDQ | no (0) |
| NMVLWWPIMYHLAWRLGHDV | no (0) |
| PPHCTGHLV | no (0) |
| SFKRFQ | no (0) |
| WTTLGGPVGREENGRRQAEG | yes (1) |
| VLAILVTNLRLSSWFQSHMM | yes (1) |
| KERNRRAEAGSYNYVGVWVT | yes (1) |
| LCGNRGFYDH | no (0) |
| VWFFGSYHVCWDCTF | no (0) |
| DHCDAVNSFEEWLMRGVPYN | no (0) |
